system: Klebsiella pneumoniae: Ciprofloxacin-resistant isolate, ESBL, clinical isolate (KP-3700); experiment: MIC determination (CLSI), KP-3700; type: cell-based
REPORTED_PROPERTY: KP-3700 MIC (µg/mL)
Write down the numeric answer in µg/mL and omit the unit.

COc1ccc(-c2ccc(CCC(C)(C(=O)NO)S(C)(=O)=O)cn2)cc1 (stereo not drawn) = 16
C[C@@](CCc1ccc(-c2ccccc2)cc1)(C(=O)NO)S(C)(=O)=O = 2

Query :: Consider the molecule shown here: CC(CCc1ccc(-c2ccc3ncccc3c2)c(F)c1)(C(=O)NO)S(C)(=O)=O (stereo not drawn) What is its recorded KP-3700 MIC?
Result :: 4

====

test system: Klebsiella pneumoniae: Ciprofloxacin-resistant isolate, ESBL, clinical isolate (KP-3700); assay: MIC determination (CLSI), KP-3700; format: cell-based
The entries below are paired with their reported KP-3700 MIC.
Write down the numeric answer in µg/mL and omit the unit.

Example entries begin here.
Cn1cc(-c2ccc(CCC(C)(C(=O)NO)S(C)(=O)=O)cc2)cn1 (centres unmarked) [Example 101] = 32
CC(CCc1ccc(OCc2cccc(F)c2)cc1)(C(=O)NO)S(C)(=O)=O (centres unmarked) [Example 268] = 8
CC(CCc1ccc(OCCCc2ccccc2)cc1)(C(=O)NO)S(C)(=O)=O (centres unmarked) [Example 264] = 16

Please look at the following compound next.
Query :: Consider the compound shown here: CNS(=O)(=O)c1ccc(-c2ccc(CCC(C)(C(=O)NO)S(C)(=O)=O)cc2)cc1 (racemic) [Example 68] What is its recorded KP-3700 MIC?
Result :: 32

====

test system: Klebsiella pneumoniae: Ciprofloxacin-resistant isolate, ESBL, clinical isolate (KP-3700); assay: MIC determination (CLSI), KP-3700; format: cell-based
REPORTED_PROPERTY: KP-3700 MIC (µg/mL)
Write down the numeric answer in µg/mL and omit the unit.

Example entries begin here.
CC(CCc1ccc(-c2ccc(F)c(Cl)c2)cc1)(C(=O)NO)S(C)(=O)=O (stereo not drawn) [Example 104] = 2
C[C@@](CCc1ccc(-c2ccc3c(c2)OCO3)cc1)(C(=O)NO)S(C)(=O)=O [Example 215] = 2
COc1ccc(-c2ccc(CCC(C)(C(=O)NO)S(C)(=O)=O)cn2)c(F)c1 (stereo not drawn) [Example 219] = 16

Query :: Consider the compound shown here: C[C@@](CCc1ccc(-c2ccc(C#N)cn2)cc1)(C(=O)NO)S(C)(=O)=O [Example 202] What is its recorded KP-3700 MIC?
Result :: 16

Query :: Consider the compound shown here: CC(CCc1ccc(OCc2cccc(F)c2F)cc1)(C(=O)NO)S(C)(=O)=O (stereo not drawn) [Example 247] What is its recorded KP-3700 MIC?
Result :: 16

Query :: Consider the compound shown here: CC(CCc1ccc(COc2cccc(F)c2)cc1)(C(=O)NO)S(C)(=O)=O (stereo not drawn) [Example 229] What is its recorded KP-3700 MIC?
Result :: 32

Query :: Consider the compound shown here: CC(CCc1ccc(-c2cncnc2)cc1)(C(=O)NO)S(C)(=O)=O (racemic) [Example 80] What is its recorded KP-3700 MIC?
Result :: 32

Query :: Consider the compound shown here: C[C@@](CCc1ccc(-c2ccc3c(c2)CNC3=O)cc1)(C(=O)NO)S(C)(=O)=O [Example 199] What is its recorded KP-3700 MIC?
Result :: 32

Query :: Consider the compound shown here: C[C@@](CCc1ccc(-c2ccc(OCCCN3CCOCC3)cc2)cc1)(C(=O)NO)S(C)(=O)=O [Example 179] What is its recorded KP-3700 MIC?
Result :: 2

Query :: Consider the compound shown here: CC(CCc1ccc(-c2ccc(C#N)cc2)cc1)(C(=O)NO)S(C)(=O)=O (stereo not drawn) [Example 29] What is its recorded KP-3700 MIC?
Result :: 2

Query :: Consider the compound shown here: CC(CCc1ccc(OCc2cccc(Cl)c2)cc1)(C(=O)NO)S(C)(=O)=O (stereo not drawn) [Example 250] What is its recorded KP-3700 MIC?
Result :: 8

Query :: Consider the compound shown here: CC(CCc1ccc(OCc2c(F)cccc2F)cc1)(C(=O)NO)S(C)(=O)=O (stereo not drawn) [Example 258] What is its recorded KP-3700 MIC?
Result :: 16

Query :: Consider the compound shown here: CC(CCc1ccc(-c2ccc(C#N)s2)cc1)(C(=O)NO)S(C)(=O)=O (racemic) [Example 82] What is its recorded KP-3700 MIC?
Result :: 2

Query :: Consider the compound shown here: CC(CCc1ccc(OCc2c(F)cc(F)cc2F)cc1)(C(=O)NO)S(C)(=O)=O (stereo not drawn) [Example 293] What is its recorded KP-3700 MIC?
Result :: 32

Numbers sourced from patent US8853258B2.
